Where do the numbers come from? From ChEMBL document CHEMBL1921709.

What MIC was measured for each of the following?
Tested on: Streptococcus pneumoniae
Test: Antibacterial activity against efflux-mediated macrolide-resistant Streptococcus pneumoniae Ci137 by broth microdilution method
Assay type: functional
Numbers only, in mg/L.

Sample records with MIC:
STRUCTURE STRING	MEASURED ON	READING UNIT	TEST RESULT
CC[C@H]1OC(=O)[C@H](C)[C@@H](O[C@H]2C[C@@](C)(OC)[C@@H](OC(=O)CCNCCNc3cc4c(=O)c(C(=O)NCCO)cn(C5CC5)c4cc3Cl)[C@H](C)O2)[C@H](C)[C@@H](O[C@@H]2O[C@H](C)C[C@H](N(C)C)[C@H]2O)[C@](C)(O)C[C@@H](C)CN(C)[C@H](C)[C@@H](O)[C@]1(C)O	Streptococcus pneumoniae	mg/L	2
CC[C@H]1OC(=O)[C@H](C)[C@@H](O[C@H]2C[C@@](C)(OC)[C@@H](OC(=O)CCNCCNc3ccc4c(c3)c(=O)c(C(=O)NCCO)cn4C3CC3)[C@H](C)O2)[C@H](C)[C@@H](O[C@@H]2O[C@H](C)C[C@H](N(C)C)[C@H]2O)[C@](C)(O)C[C@@H](C)CN(C)[C@H](C)[C@@H](O)[C@]1(C)O	Streptococcus pneumoniae	mg/L	4
CC[C@H]1OC(=O)[C@H](C)[C@@H](O[C@H]2C[C@@](C)(OC)[C@@H](OC(=O)CCNCCNc3cc4c(cc3F)c(=O)c(C(=O)NCCO)cn4C3CC3)[C@H](C)O2)[C@H](C)[C@@H](O[C@@H]2O[C@H](C)C[C@H](N(C)C)[C@H]2O)[C@](C)(O)C[C@@H](C)CN(C)[C@H](C)[C@@H](O)[C@]1(C)O	Streptococcus pneumoniae	mg/L	4
CC[C@H]1OC(=O)[C@H](C)[C@@H](O[C@H]2C[C@@](C)(OC)[C@@H](O)[C@H](C)O2)[C@H](C)[C@@H](O[C@@H]2O[C@H](C)C[C@H](N(C)C)[C@H]2O)[C@](C)(O)C[C@@H](C)CN(C)[C@H](C)[C@@H](O)[C@]1(C)O	Streptococcus pneumoniae	mg/L	8
CC[C@H]1OC(=O)[C@H](C)[C@@H](O[C@H]2C[C@@](C)(OC)[C@@H](OC(=O)CCN(C)CCNc3cc4c(=O)c(C(=O)NCCO)cn(C5CC5)c4cc3Cl)[C@H](C)O2)[C@H](C)[C@@H](O[C@@H]2O[C@H](C)C[C@H](N(C)C)[C@H]2O)[C@](C)(O)C[C@@H](C)CN(C)[C@H](C)[C@@H](O)[C@]1(C)O	Streptococcus pneumoniae	mg/L	0.5

Switching to the query record.
Tell me measured MIC for CC[C@H]1OC(=O)[C@H](C)[C@@H](O[C@H]2C[C@@](C)(OC)[C@@H](OC(=O)CCN(C)CCNc3cc4c(cc3F)c(=O)c(C(=O)NCCO)cn4C3CC3)[C@H](C)O2)[C@H](C)[C@@H](O[C@@H]2O[C@H](C)C[C@H](N(C)C)[C@H]2O)[C@](C)(O)C[C@@H](C)CN(C)[C@H](C)[C@@H](O)[C@]1(C)O please.
2

###

Tested on: Streptococcus pyogenes
Experiment: Antibacterial activity against erythromycin-sensitive Streptococcus pyogenes 3565 by broth microdilution method
Assay type: functional
READOUT: MIC (µg/mL)
Numbers only, in µg/mL.

STRUCTURE STRING	MEASURED ON	MIC, µg/mL
CC[C@H]1OC(=O)[C@H](C)[C@@H](O[C@H]2C[C@@](C)(OC)[C@@H](OC(=O)CCN(C)CCNc3cc4c(cc3F)c(=O)c(C(=O)NCCO)cn4C3CC3)[C@H](C)O2)[C@H](C)[C@@H](O[C@@H]2O[C@H](C)C[C@H](N(C)C)[C@H]2O)[C@](C)(O)C[C@@H](C)CN(C)[C@H](C)[C@@H](O)[C@]1(C)O	Streptococcus pyogenes	0.5
CC(C)(C)OC(=O)NCCNc1cc2c(cc1F)c(=O)c(C(=O)NCCO)cn2C1CC1	Streptococcus pyogenes	16
CC(C)(C)OC(=O)NCCNc1cc2c(=O)c(C(=O)NCCO)cn(C3CC3)c2cc1Cl	Streptococcus pyogenes	64
CC[C@H]1OC(=O)[C@H](C)[C@@H](O[C@H]2C[C@@](C)(OC)[C@@H](OC(=O)CCN(C)CCNc3ccc4c(c3)c(=O)c(C(=O)NCCO)cn4C3CC3)[C@H](C)O2)[C@H](C)[C@@H](O[C@@H]2O[C@H](C)C[C@H](N(C)C)[C@H]2O)[C@](C)(O)C[C@@H](C)CN(C)[C@H](C)[C@@H](O)[C@]1(C)O	Streptococcus pyogenes	0.25

Switching to the query record.
Tell me measured MIC for CC[C@H]1OC(=O)[C@H](C)[C@@H](O[C@H]2C[C@@](C)(OC)[C@@H](OC(=O)CCNCCNc3ccc4c(c3)c(=O)c(C(=O)NCCO)cn4C3CC3)[C@H](C)O2)[C@H](C)[C@@H](O[C@@H]2O[C@H](C)C[C@H](N(C)C)[C@H]2O)[C@](C)(O)C[C@@H](C)CN(C)[C@H](C)[C@@H](O)[C@]1(C)O please.
0.25

###

Tested on: Streptococcus pyogenes
Assay: Antibacterial activity against erythromycin-sensitive Streptococcus pyogenes 3565 by broth microdilution method
Assay type: functional
READOUT: MIC

Sample records with MIC:
STRUCTURE STRING	MEASURED ON	READOUT	TEST RESULT
CC[C@H]1OC(=O)[C@H](C)[C@@H](O[C@H]2C[C@@](C)(OC)[C@@H](OC(=O)CCNCCNc3cc4c(=O)c(C(=O)NCCO)cn(C5CC5)c4cc3Cl)[C@H](C)O2)[C@H](C)[C@@H](O[C@@H]2O[C@H](C)C[C@H](N(C)C)[C@H]2O)[C@](C)(O)C[C@@H](C)CN(C)[C@H](C)[C@@H](O)[C@]1(C)O	Streptococcus pyogenes	MIC	≤ 0.125 µg/mL
COC(=O)c1cn(C2CC2)c2cc(NCCNC(=O)OC(C)(C)C)c(F)cc2c1=O	Streptococcus pyogenes	MIC	> 64 µg/mL
CC[C@H]1OC(=O)[C@H](C)[C@@H](O[C@H]2C[C@@](C)(OC)[C@@H](OC(=O)CCNCCNc3cc4c(cc3F)c(=O)c(C(=O)NCCO)cn4C3CC3)[C@H](C)O2)[C@H](C)[C@@H](O[C@@H]2O[C@H](C)C[C@H](N(C)C)[C@H]2O)[C@](C)(O)C[C@@H](C)CN(C)[C@H](C)[C@@H](O)[C@]1(C)O	Streptococcus pyogenes	MIC	≤ 0.125 µg/mL

Switching to the query record.
Tell me measured MIC for COC(=O)c1cn(C2CC2)c2cc(Cl)c(NCCNC(=O)OC(C)(C)C)cc2c1=O please.
> 64 µg/mL

###

What MIC was measured for each of the following?
Tested on: Streptococcus pneumoniae
Assay: Antibacterial activity against efflux-mediated macrolide-resistant Streptococcus pneumoniae Ci137 by broth microdilution method
Format: functional

> print(dat)
                           structure.string  test.result
1  COC(=O)c1cn(C2CC2)c2cc(NCCNC(=O)OC(C)(C)C)c(F)cc2c1=O   > 64 µg/mL
2  CC(C)(C)OC(=O)NCCNc1cc2c(cc1F)c(=O)c(C(=O)NCCO)cn2C1CC1   > 64 µg/mL

Tell me measured MIC for CC(C)(C)OC(=O)NCCNc1cc2c(=O)c(C(=O)NCCO)cn(C3CC3)c2cc1Cl please.
> 64 µg/mL

###

What MIC was measured for each of the following?
Tested on: Streptococcus pyogenes
Test: Antibacterial activity against erythromycin-sensitive Streptococcus pyogenes 3565 by broth microdilution method
Format: functional

Sample records with MIC:
STRUCTURE STRING	MIC
NCCNc1cc2c(=O)c(C(=O)NCCO)cn(C3CC3)c2cc1Cl	> 64 µg/mL
CC[C@H]1OC(=O)[C@H](C)[C@@H](O[C@H]2C[C@@](C)(OC)[C@@H](OC(=O)CCN(C)CCNc3cc4c(=O)c(C(=O)NCCO)cn(C5CC5)c4cc3Cl)[C@H](C)O2)[C@H](C)[C@@H](O[C@@H]2O[C@H](C)C[C@H](N(C)C)[C@H]2O)[C@](C)(O)C[C@@H](C)CN(C)[C@H](C)[C@@H](O)[C@]1(C)O	≤ 0.125 µg/mL
NCCNc1cc2c(cc1F)c(=O)c(C(=O)NCCO)cn2C1CC1	> 64 µg/mL

Switching to the query record.
Tell me measured MIC for CC[C@H]1OC(=O)[C@H](C)[C@@H](O[C@H]2C[C@@](C)(OC)[C@@H](O)[C@H](C)O2)[C@H](C)[C@@H](O[C@@H]2O[C@H](C)C[C@H](N(C)C)[C@H]2O)[C@](C)(O)C[C@@H](C)CN(C)[C@H](C)[C@@H](O)[C@]1(C)O please.
≤ 0.125 µg/mL
